Reference for the values: the supplement of paper PMC6607015

system: HeLa MZ; assay: LBPA endosome anti-LBPA integrated intensity (sum per cell), Z-score; higher = more LBPA staining; details: compound concentration in added solution (µM; 5 µl added to 20 µl cells): 10; 18 h
Where a name gives a salt, the structure may show the parent alone.
// not met strictly below -0.8 in LBPA endosome anti-LBPA integrated intensity (z-score); met otherwise

Solved cases below.
compound	class-assignment
C[C@@H](O)[C@H]1C(=O)N2C(C(=O)O)=C(S[C@@H]3CN[C@H](C(=O)N(C)C)C3)[C@H](C)[C@H]12	met
Clc1cc(Cl)c(OCC#CI)cc1Cl	not met
Nc1c(Br)cc(Br)cc1CN[C@H]1CC[C@H](O)CC1 [Ambroxol hydrochloride]	met
COc1c(N2C[C@@H]3CCCN[C@@H]3C2)c(F)cc2c(=O)c(C(=O)O)cn(C3CC3)c12	not met
Cc1cn([C@H]2C[C@H](N=[N+]=[N-])[C@@H](CO)O2)c(=O)[nH]c1=O	not met
CC(CNC1CCCCC1)OC(=O)c1ccccc1 (stereo unspecified) [Hexylcaine hydrochloride]	met

Query: # bool: LBPA endosome anti-LBPA integrated intensity (z-score) of CNC1(C)C2CCC(C2)C1(C)C (stereo unspecified) [Mecamylamine hydrochloride] >= -0.8
Result: not met

Query: # bool: LBPA endosome anti-LBPA integrated intensity (z-score) of COc1cccc(N(C)C(=S)Oc2ccc3c(c2)CCCC3)n1 [Liranaftate] >= -0.8
Result: met

Query: # bool: LBPA endosome anti-LBPA integrated intensity (z-score) of "O=C(O)Cc1ccc(-c2ccccc2)cc1" >= -0.8
Result: not met

Query: # bool: LBPA endosome anti-LBPA integrated intensity (z-score) of "C[C@]12CC[C@@H]3c4ccc(O)cc4CC[C@H]3[C@@H]1C[C@@H](O)[C@@H]2O" >= -0.8
Result: met

Query: # bool: LBPA endosome anti-LBPA integrated intensity (z-score) of "CC(=O)[C@H]1CC[C@H]2[C@@H]3CC=C4C[C@@H](O)CC[C@]4(C)[C@H]3CC[C@]12C" >= -0.8
Result: met

Query: # bool: LBPA endosome anti-LBPA integrated intensity (z-score) of "Nc1ccn([C@H]2CC[C@@H](CO)O2)c(=O)n1" >= -0.8
Result: met

Query: # bool: LBPA endosome anti-LBPA integrated intensity (z-score) of "O=C(O)CN(CCN(CC(=O)O)CC(=O)O)CCN(CC(=O)O)CC(=O)O" >= -0.8
Result: not met

Query: # bool: LBPA endosome anti-LBPA integrated intensity (z-score) of Clc1ccc(C(c2ccccc2Cl)C(Cl)Cl)cc1 (stereo unspecified) >= -0.8
Result: not met

Query: # bool: LBPA endosome anti-LBPA integrated intensity (z-score) of "CC[C@H](C)[C@H](N)C1=N[C@H](C(=O)N[C@@H](CC(C)C)C(=O)N[C@H](CCC(=O)O)C(=O)N[C@H](C(=O)N[C@H]2CCCCNC(=O)[C@H](CC(N)=O)NC(=O)[C@@H](CC(=O)O)NC(=O)[C@H](Cc3cnc[nH]3)NC(=O)[C@@H](Cc3ccccc3)NC(=O)[C@H]([C@@H](C)CC)NC(=O)[C@@H](CCCN)NC2=O)[C@@H](C)CC)CS1" >= -0.8
Result: met

Query: # bool: LBPA endosome anti-LBPA integrated intensity (z-score) of "C[C@H](O)C(=O)Nc1c(I)c(C(=O)NC(CO)CO)c(I)c(C(=O)NC(CO)CO)c1I" >= -0.8
Result: not met
